Tested on: Haemophilus influenzae
Assay: Antibacterial activity against telithromycin-susceptible Haemophilus influenzae ATCC 49766
Assay type: functional
Give measured MIC for each item. Keep answers brief.
Give your result in µg/mL as a bare value.

IN: Which MIC is reported for this molecule? `CC[C@H]1OC(=O)[C@H](C)C(=O)[C@H](C)[C@@H](O[C@@H]2O[C@H](C)C[C@H](N(C)C)[C@H]2O)[C@](C)(OC(=O)NNCCc2ccc(-c3cnccn3)cc2)C[C@@H](C)C(=O)[C@H](C)[C@H]2NC(=O)O[C@@]21C`
OUT: 2

IN: Also need CC[C@H]1OC(=O)[C@H](C)C(=O)[C@H](C)[C@@H](O[C@@H]2O[C@H](C)C[C@H](N(C)C)[C@H]2O)[C@](C)(OC)C[C@@H](C)C(=O)[C@H](C)[C@H]2N(CCCCn3cnc(-c4cccnc4)c3)C(=O)O[C@]12C [TELITHROMYCIN] , thanks.
OUT: 1

IN: Same question for `CC[C@H]1OC(=O)[C@H](C)C(=O)[C@H](C)[C@@H](O[C@@H]2O[C@H](C)C[C@H](N(C)C)[C@H]2O)[C@](C)(OC(=O)N(C)NCCc2ccc(-c3cnccn3)cc2)C[C@@H](C)C(=O)[C@H](C)[C@H]2NC(=O)O[C@@]21C` please.
OUT: 8

----------
Hi there, I'd appreciate the recorded log10(MIC) for every entry that follows.
System: Haemophilus influenzae
Test: Antibacterial activity against telithromycin-susceptible Haemophilus influenzae ATCC 49766
Format: functional
A value of 2 here means MIC of 100 in µg/mL, since values are log10.

IN: Which measured log10(MIC) value corresponds to `CC[C@H]1OC(=O)[C@H](C)C(=O)[C@H](C)[C@@H](O[C@@H]2O[C@H](C)C[C@H](N(C)C)[C@H]2O)[C@](C)(OC(=O)NN(C)CCc2cnc3ccccc3c2)C[C@@H](C)C(=O)[C@H](C)[C@H]2NC(=O)O[C@@]21C` ?
OUT: 0.30

IN: Next record, please: `CC[C@H]1OC(=O)[C@H](C)C(=O)[C@H](C)[C@@H](O[C@@H]2O[C@H](C)C[C@H](N(C)C)[C@H]2O)[C@](C)(OC(=O)NN(C)CCc2ccc(-c3ncccn3)cc2)C[C@@H](C)C(=O)[C@H](C)[C@H]2NC(=O)O[C@@]21C`
OUT: 0.60

IN: Would you kindly repeat that for `CC[C@H]1OC(=O)[C@H](C)C(=O)[C@H](C)[C@@H](O[C@@H]2O[C@H](C)C[C@H](N(C)C)[C@H]2O)[C@](C)(OC(=O)NN(C)Cc2ccc(-c3ncccn3)cc2)C[C@@H](C)C(=O)[C@H](C)[C@H]2NC(=O)O[C@@]21C` ?
OUT: 0.60

IN: Further, for `CC[C@H]1OC(=O)[C@H](C)C(=O)[C@H](C)[C@@H](O[C@@H]2O[C@H](C)C[C@H](N(C)C)[C@H]2O)[C@](C)(OC(=O)NN(CC)CCc2ccc(-c3ncccn3)cc2)C[C@@H](C)C(=O)[C@H](C)[C@H]2NC(=O)O[C@@]21C` ?
OUT: 0.90

IN: How about this compound: `CC[C@H]1OC(=O)[C@H](C)C(=O)[C@H](C)[C@@H](O[C@@H]2O[C@H](C)C[C@H](N(C)C)[C@H]2O)[C@](C)(OC(=O)NNCCc2cccc(-c3ncccn3)c2)C[C@@H](C)C(=O)[C@H](C)[C@H]2NC(=O)O[C@@]21C`
OUT: 0.30

IN: // repeat for `CC[C@H]1OC(=O)[C@H](C)C(=O)[C@H](C)[C@@H](O[C@@H]2O[C@H](C)C[C@H](N(C)C)[C@H]2O)[C@](C)(OC(=O)NN(C)CCc2ccc(-c3cnccn3)cc2)C[C@@H](C)C(=O)[C@H](C)[C@H]2NC(=O)O[C@@]21C` and report
OUT: 0.30

IN: Same question for `CC[C@H]1OC(=O)[C@H](C)C(=O)[C@H](C)[C@@H](O[C@@H]2O[C@H](C)C[C@H](N(C)C)[C@H]2O)[C@](C)(OC(=O)NNCCc2cnc3ccccc3c2)C[C@@H](C)C(=O)[C@H](C)[C@H]2NC(=O)O[C@@]21C` please.
OUT: -0.30

IN: Check `CC[C@H]1OC(=O)[C@H](C)C(=O)[C@H](C)[C@@H](O[C@@H]2O[C@H](C)C[C@H](N(C)C)[C@H]2O)[C@](C)(OC(=O)N(C)N(C)CCc2ccc(-c3cnccn3)cc2)C[C@@H](C)C(=O)[C@H](C)[C@H]2NC(=O)O[C@@]21C` too.
OUT: 1.20

IN: Follow-up item: `CC[C@H]1OC(=O)[C@H](C)C(=O)[C@H](C)[C@@H](O[C@@H]2O[C@H](C)C[C@H](N(C)C)[C@H]2O)[C@](C)(OC(=O)NN)C[C@@H](C)C(=O)[C@H](C)[C@H]2NC(=O)O[C@@]21C`
OUT: 0.90

IN: Same for `CC[C@H]1OC(=O)[C@H](C)C(=O)[C@H](C)[C@@H](O[C@@H]2O[C@H](C)C[C@H](N(C)C)[C@H]2O)[C@](C)(OC(=O)NNCCc2ccc(-c3ncccn3)cc2)C[C@@H](C)C(=O)[C@H](C)[C@H]2NC(=O)O[C@@]21C`
OUT: 0.60

IN: Also need `CC[C@H]1OC(=O)[C@H](C)C(=O)[C@H](C)[C@@H](O[C@@H]2O[C@H](C)C[C@H](N(C)C)[C@H]2O)[C@](C)(OC(=O)NN(C)C/C=C/c2ccc(-c3ncccn3)cc2)C[C@@H](C)C(=O)[C@H](C)[C@H]2NC(=O)O[C@@]21C` , thanks.
OUT: 0.90

IN: Now give it for `CC[C@H]1OC(=O)[C@H](C)C(=O)[C@H](C)[C@@H](O[C@@H]2O[C@H](C)C[C@H](N(C)C)[C@H]2O)[C@](C)(OC(=O)NN(C)CCCc2ccc(-c3ncccn3)cc2)C[C@@H](C)C(=O)[C@H](C)[C@H]2NC(=O)O[C@@]21C` too.
OUT: 0.90

IN: Same again, this time with CC[C@H]1OC(=O)[C@H](C)[C@@H](O[C@H]2C[C@@](C)(OC)[C@@H](O)[C@H](C)O2)[C@H](C)[C@@H](O[C@@H]2O[C@H](C)C[C@H](N(C)C)[C@H]2O)[C@](C)(O)C[C@@H](C)C(=O)[C@H](C)[C@@H](O)[C@]1(C)O [ERYTHROMYCIN]
OUT: 0.90

IN: Same question for `CC[C@H]1OC(=O)[C@H](C)C(=O)[C@H](C)[C@@H](O[C@@H]2O[C@H](C)C[C@H](N(C)C)[C@H]2O)[C@](C)(OC(=O)NN(C)CCc2ccc(-c3ncccn3)cc2F)C[C@@H](C)C(=O)[C@H](C)[C@H]2NC(=O)O[C@@]21C` please.
OUT: 0.60

IN: Subsequent entry: `CC[C@H]1OC(=O)[C@H](C)C(=O)[C@H](C)[C@@H](O[C@@H]2O[C@H](C)C[C@H](N(C)C)[C@H]2O)[C@](C)(OC(=O)NN(C)CCc2ccc(-c3ncccn3)s2)C[C@@H](C)C(=O)[C@H](C)[C@H]2NC(=O)O[C@@]21C`
OUT: 0.30

IN: Okay, and `CC[C@H]1OC(=O)[C@H](C)C(=O)[C@H](C)[C@@H](O[C@@H]2O[C@H](C)C[C@H](N(C)C)[C@H]2O)[C@](C)(OC(=O)NN(C)CCc2ccc(-c3ncco3)cc2)C[C@@H](C)C(=O)[C@H](C)[C@H]2NC(=O)O[C@@]21C` ?
OUT: 0.30

----------
Tested on: Streptococcus pneumoniae
Test: Antibacterial activity against erythromycin-susceptible Streptococcus pneumoniae OC9132
Type: functional
propertyMeasured: MIC (µg/mL)
Please give a number only; it is taken to be in µg/mL.

IN: Which MIC reading was recorded for the compound `CC[C@H]1OC(=O)[C@H](C)C(=O)[C@H](C)[C@@H](O[C@@H]2O[C@H](C)C[C@H](N(C)C)[C@H]2O)[C@](C)(OC(=O)NN(C)CCc2ccc(-c3cnccn3)cc2)C[C@@H](C)C(=O)[C@H](C)[C@H]2NC(=O)O[C@@]21C` ?
OUT: 0.03

IN: Item: `CC[C@H]1OC(=O)[C@H](C)C(=O)[C@H](C)[C@@H](O[C@@H]2O[C@H](C)C[C@H](N(C)C)[C@H]2O)[C@](C)(OC(=O)NN(C)CCCc2ccc(-c3ncccn3)cc2)C[C@@H](C)C(=O)[C@H](C)[C@H]2NC(=O)O[C@@]21C`
OUT: 0.06

IN: Note, next up: `CC[C@H]1OC(=O)[C@H](C)C(=O)[C@H](C)[C@@H](O[C@@H]2O[C@H](C)C[C@H](N(C)C)[C@H]2O)[C@](C)(OC(=O)NNCCc2ccc(-c3ncccn3)cc2)C[C@@H](C)C(=O)[C@H](C)[C@H]2NC(=O)O[C@@]21C`
OUT: 0.03

Value source: ChEMBL document CHEMBL1145302
